target of assay: human factor XIa (Homo sapiens)
Sequence (P03951 388-625 limits assumed): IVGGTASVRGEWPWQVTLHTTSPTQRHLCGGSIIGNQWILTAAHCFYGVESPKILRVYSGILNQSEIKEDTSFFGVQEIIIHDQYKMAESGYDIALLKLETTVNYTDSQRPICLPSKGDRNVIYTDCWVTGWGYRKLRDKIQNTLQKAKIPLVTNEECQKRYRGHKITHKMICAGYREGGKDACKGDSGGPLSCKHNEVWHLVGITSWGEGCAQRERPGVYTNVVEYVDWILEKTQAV
Sequence (P03951 19-387 partner limits assumed): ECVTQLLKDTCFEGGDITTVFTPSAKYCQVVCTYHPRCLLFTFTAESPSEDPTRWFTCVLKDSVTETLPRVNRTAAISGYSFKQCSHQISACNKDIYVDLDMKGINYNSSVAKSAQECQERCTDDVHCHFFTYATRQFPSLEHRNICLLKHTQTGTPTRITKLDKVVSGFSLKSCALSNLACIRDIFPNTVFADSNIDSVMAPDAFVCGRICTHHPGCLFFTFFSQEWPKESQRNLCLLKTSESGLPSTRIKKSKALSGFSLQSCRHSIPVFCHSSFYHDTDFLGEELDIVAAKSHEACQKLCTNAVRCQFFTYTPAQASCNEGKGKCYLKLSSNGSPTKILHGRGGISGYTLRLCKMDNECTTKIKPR
pIC50: −log10 of the molar value.
readout label: pIC50

[a] Cc1nc(C(C)n2cc(NC(=O)c3cncc(-c4c(C(F)F)ccc(Cl)c4F)n3)cn2)cnc1N1CCC1 (single isomer, unassigned)
[b] CC(c1cnc(N2CC[C@H]2CN2CCC(C)(O)C2)nc1)n1cc(NC(=O)c2cncc(-c3c(C(F)F)ccc(Cl)c3F)n2)cn1 (stereo partly drawn)
[c] Cc1ncc(-c2c(C(F)F)ccc(Cl)c2F)nc1C(=O)Nc1cnn(C(CO)c2cnc(N3CCC3)nc2)c1 (single isomer, unassigned) [Example 47]
query: Kindly provide a descending ordering of the above compounds based on their pIC50. Please reply with the labels ordered as requested. Many thanks.
result: c, a, b
(c: 6.49, a: 6.10, b: 5.24)

====

target of assay: Human plasma kallikrein (Homo sapiens, UniProt P03952)
Construct: yields a heavy chain (371 amino acids) and a light chain (248 amino acids)
Sequence (P03952 391-638 limits assumed): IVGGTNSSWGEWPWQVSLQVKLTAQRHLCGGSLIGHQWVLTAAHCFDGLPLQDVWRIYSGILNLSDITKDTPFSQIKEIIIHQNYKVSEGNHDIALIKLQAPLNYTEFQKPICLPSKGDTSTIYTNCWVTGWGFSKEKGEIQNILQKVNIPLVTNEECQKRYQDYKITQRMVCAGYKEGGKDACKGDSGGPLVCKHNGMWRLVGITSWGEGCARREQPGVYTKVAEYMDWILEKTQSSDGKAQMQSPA
Sequence (P03952 20-390 partner limits assumed): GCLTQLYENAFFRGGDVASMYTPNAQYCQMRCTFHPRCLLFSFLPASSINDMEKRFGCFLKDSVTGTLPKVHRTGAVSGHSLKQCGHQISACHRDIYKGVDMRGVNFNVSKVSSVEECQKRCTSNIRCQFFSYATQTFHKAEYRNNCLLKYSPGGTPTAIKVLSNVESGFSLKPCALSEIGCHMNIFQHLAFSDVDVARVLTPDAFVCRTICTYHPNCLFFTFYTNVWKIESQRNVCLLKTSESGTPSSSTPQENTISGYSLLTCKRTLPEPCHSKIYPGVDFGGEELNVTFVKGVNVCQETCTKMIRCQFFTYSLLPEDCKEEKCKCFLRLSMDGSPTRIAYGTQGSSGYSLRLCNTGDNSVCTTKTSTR
assay explanation: Plasma Kallikrein Assay
condition set: purified Human plasma kallikrein 0.5 nM, substrate Acetyl-K-P-R-AFC, pH 7.4
readout label: IC50 (nM)

compound: CC(c1cnc(N2CC(F)(F)C2)nc1)n1cc(NC(=O)c2cncc(-c3c(C(F)F)ccc(Cl)c3F)n2)cn1 (stereo not shown)
unit abbrev: nM
IC50: 9.3

compound: COC[C@@H]1CCCN1c1ccc(Cn2cc(NC(=O)c3cncc(-c4c(C(F)F)ccc(Cl)c4F)n3)cn2)cn1
unit abbrev: nM
IC50: 17.8

compound: O=C(Nc1cnn(Cc2cnc(N3CCC3)nc2)c1)c1cncc(-c2c(OC(F)F)ccc(Cl)c2F)n1
unit abbrev: nM
IC50: 9.6

compound: O=C(Nc1cnn(Cc2cnc(N3C[C@H]4C[C@H]4[C@H]3CNCC(O)C(F)F)nc2)c1)c1cncc(-c2c(C(F)F)ccc(Cl)c2F)n1 (stereo partly shown)
unit abbrev: nM
IC50: 0.6

[A] CC(c1cnc(N2CC[C@H]2[C@@H](C)N2C[C@@H](O)[C@H](O)C2)nc1)n1cc(NC(=O)c2cncc(-c3c(C(F)F)ccc(Cl)c3F)n2)cn1 (stereo partly shown)
[B] O=C(Nc1cnn(Cc2cnc(N3CCC4CC43)nc2)c1)c1cncc(-c2c(C(F)F)ccc(Cl)c2F)n1 (stereo not shown)
[C] CC(c1cnc(N2CC[C@H]2CN2C[C@@H](O)[C@H](O)C2)nc1)n1cc(NC(=O)c2cncc(-c3c(C(F)F)ccc(Cl)c3F)n2)cn1 (stereo partly shown)
[D] CC(c1cnc(N2CC[C@H]2CN2CC[C@@H](O)C2)nc1)n1cc(NC(=O)c2cncc(-c3c(C(F)F)ccc(Cl)c3F)n2)cn1 (stereo partly shown)
[E] NCC1CCCN1c1ncc(Cn2cc(NC(=O)c3cncc(-c4c(C(F)F)ccc(Cl)c4F)n3)cn2)cn1 (stereo not shown)
query: Sort (5 compounds) by IC50: min first. Please reply with the labels ordered as requested. Many thanks.
result: D, C, A, E, B
(D: 1.2 nM, C: 2 nM, A: 3.2 nM, E: 7.4 nM, B: 45 nM)

[1] C[C@@H](c1cnc(N2CC(C)(F)C2)nc1)n1cc(NC(=O)c2cncc(-c3c(C(F)F)ccc(Cl)c3F)n2)cn1
[2] Cc1ncc(-c2c(C(F)F)ccc(Cl)c2F)nc1C(=O)Nc1cnn(C(C)c2cnc(N3CCC3)nc2)c1 (single isomer, unassigned) [Example 27]
[3] CC(c1cnc(N2C[C@H]3C[C@H]3C2C(=O)N(C)C)nc1)n1cc(NC(=O)c2cncc(-c3c(C(F)F)ccc(Cl)c3F)n2)cn1 (single isomer, unassigned) [Example 200]
query: Sort (3 compounds) by IC50: min first. Please reply with the labels ordered as requested. Many thanks.
result: 3, 2, 1
(3: 2.4 nM, 2: 3.8 nM, 1: 31.2 nM)

====

target of assay: Human plasma kallikrein (Homo sapiens, UniProt P03952)
Construct: yields a heavy chain (371 amino acids) and a light chain (248 amino acids)
assay explanation: Plasma Kallikrein Assay
condition set: purified Human plasma kallikrein 0.5 nM, substrate Acetyl-K-P-R-AFC, pH 7.4
Description: The effectiveness of a compound of the present invention as an inhibitor of plasma kallikrein can be determined using a relevant purified serine protease, and an appropriate synthetic substrate. The rate of hydrolysis of the chromogenic or fluorogenic substrate by the relevant serine protease was measured both in the absence and presence of compounds of the present invention. […] A decrease in the rate of fluorescence change in the presence of inhibitor is indicative of enzyme inhibition. […]
readout label: IC50 (nM)

compound: Cc1nc(N2CCC2)ncc1[C@H](C)n1cc(NC(=O)c2cncc(-c3c(C(F)F)ccc(Cl)c3F)n2)cn1 (single isomer, unassigned)
IC50 [nM]: 64.3
//
compound: CC(c1cnc(N2Cc3cnn(C)c3C2)nc1)n1cc(NC(=O)c2cncc(-c3c(C(F)F)ccc(Cl)c3F)n2)cn1 (stereo not drawn)
IC50 [nM]: 20
//
compound: C[C@@H](c1cnc(N2CC(F)C2)nc1)n1cc(NC(=O)c2cncc(-c3c(C(F)F)ccc(Cl)c3F)n2)cn1
IC50 [nM]: 18.5

[a] C[C@@H](c1cnc(N2CCC2)nc1)n1cc(NC(=O)c2cncc(-c3c(C(F)(F)F)ccc(Cl)c3F)n2)cn1 (single isomer, unassigned)
[b] CC(c1cnc(N2CC[C@H]2CN2CC(O)(C(C)C)C2)nc1)n1cc(NC(=O)c2cncc(-c3c(C(F)F)ccc(Cl)c3F)n2)cn1 (stereo partly drawn)
query: Could you determine which record has the numerically smaller IC50? Candidates: a and b // return label of chosen record
result: b

====

target of assay: Human plasma kallikrein (Homo sapiens, UniProt P03952)
Construct: yields a heavy chain (371 amino acids) and a light chain (248 amino acids)
assay explanation: Plasma Kallikrein Assay
condition set: purified Human plasma kallikrein 0.5 nM, substrate Acetyl-K-P-R-AFC, pH 7.4
readout label: IC50 (nM)

molecule: O=C(Nc1cnn(Cc2ccc(N3CCCC3CCO)nc2)c1)c1cncc(-c2c(C(F)F)ccc(Cl)c2F)n1 (stereo not drawn)
target of assay: Human plasma kallikrein (Homo sapiens, UniProt P03952)
unit abbrev: nM
IC50: 3.5

[a] O=C(Nc1cnn(C(c2cnc(N3CCC3)nc2)C(F)F)c1)c1cncc(-c2c(C(F)F)ccc(Cl)c2F)n1 (single isomer, unassigned)
[b] CC(c1cnc(N2CC[C@H]2CN2CC[C@H](O)[C@@H]2C)nc1)n1cc(NC(=O)c2cncc(-c3c(C(F)F)ccc(Cl)c3F)n2)cn1 (stereo partly drawn)
query: Could you determine which record has the numerically smaller IC50? Candidates: a and b // return label of chosen record
result: b
(b: 2 nM, a: 44.3 nM)

====

target of assay: Human plasma kallikrein (Homo sapiens, UniProt P03952)
Construct: yields a heavy chain (371 amino acids) and a light chain (248 amino acids)
assay explanation: Plasma Kallikrein Assay
condition set: purified Human plasma kallikrein 0.5 nM, substrate Acetyl-K-P-R-AFC, pH 7.4
Procedure: The effectiveness of a compound of the present invention as an inhibitor of plasma kallikrein can be determined using a relevant purified serine protease, and an appropriate synthetic substrate. The rate of hydrolysis of the chromogenic or fluorogenic substrate by the relevant serine protease was measured both in the absence and presence of compounds of the present invention. […] A decrease in the rate of fluorescence change in the presence of inhibitor is indicative of enzyme inhibition. […]
readout label: IC50 (nM)

// known answers, use as guide
compound: COc1ccc(-n2cnnn2)c(-c2cncc(C(=O)Nc3cnn(C(C)c4cnc(N5CCC5)nc4)c3)n2)c1 (single isomer, unassigned) [Example 60]
unit abbrev: nM
IC50: 47
--
compound: Cc1nc(C(C)n2cc(NC(=O)c3cncc(-c4c(C(F)F)ccc(Cl)c4F)n3)cn2)cnc1N1CCC1 (single isomer, unassigned) [Example 39]
unit abbrev: nM
IC50: 1.3
--
compound: CC(c1cnc(N2CC[C@H](O)C2)nc1)n1cc(NC(=O)c2cncc(-c3c(C(F)F)ccc(Cl)c3F)n2)cn1 (mixture of isomers)
unit abbrev: nM
IC50: 25.9
--
compound: CCC(=O)C1C2CC2CN1c1ncc(Cn2cc(NC(=O)c3cncc(-c4c(C(F)F)ccc(Cl)c4F)n3)cn2)cn1 (stereo not drawn)
unit abbrev: nM
IC50: 17.9

[a] O=C(Nc1cnn(Cc2cnc(N3CC[C@@H]3CO)nc2)c1)c1cncc(-c2c(C(F)F)ccc(Cl)c2F)n1
[b] CC(c1cnc(N2CCC2)cn1)n1cc(NC(=O)c2cncc(-c3c(C(F)F)ccc(Cl)c3F)n2)cn1 (single isomer, unassigned) [Example 29]
query: Could you determine which record has the numerically smaller IC50? Candidates: a and b // return label of chosen record
result: b

====

target of assay: Human plasma kallikrein (Homo sapiens, UniProt P03952)
Construct: yields a heavy chain (371 amino acids) and a light chain (248 amino acids)
assay explanation: Plasma Kallikrein Assay
condition set: purified Human plasma kallikrein 0.5 nM, substrate Acetyl-K-P-R-AFC, pH 7.4
readout label: IC50 (nM)

// known answers, use as guide
compound: Cc1cc(N2CCC2)ncc1[C@H](C)n1cc(NC(=O)c2cncc(-c3c(C(F)F)ccc(Cl)c3F)n2)cn1 (single isomer, unassigned)
unit abbrev: nM
IC50: 3.9
//
compound: CC(c1cnc(N2CCC2)nc1)n1cc(NC(=O)c2cncc(-c3cc(Cl)ccc3-n3cnnn3)n2)cn1 (single isomer, unassigned) [Example 58]
unit abbrev: nM
IC50: 8.1

[a] CC1C2CC2CN1c1ncc(C(CO)n2cc(NC(=O)c3cncc(-c4c(C(F)F)ccc(Cl)c4F)n3)cn2)cn1 (single isomer, unassigned) [Example 48]
[b] O=C(Nc1cnn(Cc2cnc(N3CCCC3CNCC(F)F)nc2)c1)c1cncc(-c2c(C(F)F)ccc(Cl)c2F)n1 (stereo not drawn)
query: Could you determine which record has the numerically smaller IC50? Candidates: a and b // return label of chosen record
result: b
